- procedure.text: yeast display, Sf9 membrane polyspecificity reagent, FACS + sequencing; frameworks hold sequencing errors
experimental.readout: polyreactivity (PSR sort gate)

>>> endpoint_value("QVQLVESGGGLVQAGRSLRLSCAASGRTMNGNAMGWYRQAPGKERELVAAITRGGSTYYADSVKGRFTISRDNEKNSVYLQMYSLKPEVTAVYYCAADARYTGYYYWGQGTQVTVSS")
"high polyreactivity"
>>> endpoint_value("QVQLQESAVLVQAGGSLRLSCPASGSISGRNVMGRYRQAQAKQREFVASITDGSSTNYADSVKGRFTISRDNAKNTVYLQMNSLNPKDTAVYYCAAYAQRAKSFGYWGRGTQVTVSS")
"low polyreactivity"
>>> endpoint_value("QVQLQESGGGLVQASGSLRLSCAASGNIFPDYVMGWYRLAPGKEREFVANITGGSTTNYADSVKGRFTISRDNAKNTVYLQMNSLNPEDTAVYYCAVNFGTVVLYLYWGQGTQVTVSS")
"high polyreactivity"
>>> endpoint_value("QVQLVESGGGLVQAGGSLRLSCAASGFTFTRYAMGWYRQAPGKERELVASISTSGGRTYYADSVKGRFTISRDNAKNTVYLQMNSLKPEDTAVYYCAASWNTQSRGWQYDYWGQGTQVTVSS")
"low polyreactivity"
>>> endpoint_value("QVQLVESGGGLVQAGGILRLSCASSGSTFPTNAMGWYTQAPGKERELVAAISSSGGRTYYADSVKGRFTISRDNAKNTVDLQMNSLKPEDTAVYSCAAVWWRAYAVRMYYWGQGTQVTVSS")
"high polyreactivity"
